Target: T1, Rad51 wild-type (Schizosaccharomyces pombe, UniProt P36601 1-365)
T1 sequence: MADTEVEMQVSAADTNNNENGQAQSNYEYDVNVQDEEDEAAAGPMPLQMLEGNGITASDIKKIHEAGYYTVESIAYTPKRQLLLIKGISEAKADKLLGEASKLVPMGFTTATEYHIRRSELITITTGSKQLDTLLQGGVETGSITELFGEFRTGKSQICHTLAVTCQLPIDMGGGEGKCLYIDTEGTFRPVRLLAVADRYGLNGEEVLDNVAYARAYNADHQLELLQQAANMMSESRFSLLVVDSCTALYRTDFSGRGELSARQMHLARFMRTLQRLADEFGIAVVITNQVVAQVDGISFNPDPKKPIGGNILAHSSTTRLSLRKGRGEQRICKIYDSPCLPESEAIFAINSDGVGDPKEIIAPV
Test: fluorescence anisotropy; 1 mM ATP, 3 mM MgCl2; Hill n 2.86; 30 mM HEPES-KOH pH 7.5, 100 mM KCl, 3 mM MgCl2, 1 mM DTT, 5% glycerol, 1 mM ATP, 25 C (EMSA: 2 mM ATP, 37 C, then 0.2% glutaraldehyde)
Details: protein: recombinant; label: 5' TAMRA
quantity.name: pKd
Answer as the number alone; pKd is minus log10 of concentration in mol/L.

Can you look up the measured pKd of [TAMRA]dT72 (ssDNA) DNA: TTTTTTTTTTTTTTTTTTTTTTTTTTTTTTTTTTTTTTTTTTTTTTTTTTTTTTTTTTTTTTTTTTTTTTTT for me?
6.45
